# ASSAYED_SYSTEM: Aβ1–42 (Homo sapiens, UniProt P05067)
# Sequence (P05067 672-713): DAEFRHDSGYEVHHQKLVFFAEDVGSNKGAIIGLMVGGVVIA
# ASSAY_METHOD_TEXT: ThT assay of Aβ1–42 aggregation
pIC50: −log10 of the molar value.
MEASUREMENT_NAME: pIC50

{"COMPOUND_STRING": "CC1=C[C@H](O)CC(C)(C)[C@H]1/C=C/C(C)=C/C=C/C(C)=C/C=C/C=C(C)/C=C/C=C(C)/C=C/C1=C(C)C[C@@H](O)CC1(C)C", "ASSAYED_SYSTEM": "Aβ1–42 (Homo sapiens, UniProt P05067)", "MEASUREMENT_NAME": "pIC50", "READING": 4.13}
{"COMPOUND_STRING": "CCCCC/C=C\\C/C=C\\C/C=C\\C/C=C\\CCCC(=O)O", "ASSAYED_SYSTEM": "Aβ1–42 (Homo sapiens, UniProt P05067)", "MEASUREMENT_NAME": "pIC50", "READING": 4.43}
